// data source = patent US10300058B2

- Protocol text: Pharmacokinetics in dog
- Format: in vivo, male Beagle dog
- Experimental context: male, plasma; Beagle dog, po, 1 mg/kg
- Experimental: Test animal: male Beagle dog, 3 dogs/administration route/compound, weight: 7-12 kg. Solvent for intraveneous injection (iv) of Compound 31: 20% DMF (N,N-dimethylformamide)+20% PEG400 (polyethylene glycol 400)+60% sterile water for injection Compound 31 (15.40 mg) was weighed, dissolved in solvent for intraveneous injection ultrasonically, and mixed homogeneously under vortexing, to get a clear and transparent compound solution at a theoretical concentration of 0.5 mg/mL. […]
Metric name: Cmax

> print(dat)
                           structure.smiles  metric.name  observed.result
1  C=CC(=O)Nc1cccc(Nc2nc(Nc3ccc(N4CC5(CN(C(C)=O)C5)C4)cc3OC)ncc2C(F)(F)F)c1         Cmax        261 ng/mL
